# assayProcedure: Solubility of compound in Hcl buffer at pH 2.0
assayReadout: solubility (µM)
Record the value in µM, omitting the unit from your answer.

Consider the molecule shown here: `Nc1nc2cnc(C(=O)N3CCOC[C@@H]3c3ccc(C(F)(F)F)cc3)cc2c2c1COC2` What is its recorded solubility?
492

---

# assayProcedure: Passive permeability in MDCK-II cells at 0.1 to 10 uM
# Type: ADME, cell-based, Canis lupus familiaris
# conditionLabel: dog, dose 0.1-10 µM, read-out: permeability
assayReadout: Papp at up to 10 µM (×10⁻⁶ cm/s)
Entry rule: numbers only, all in ×10⁻⁶ cm/s.

Field request: Papp at up to 10 µM | item: `Nc1nc2cnc(C(=O)N3CCOC[C@@H]3c3ccc(C(F)(F)F)cc3)cc2c2c1COC2`
33

---

# assayProcedure: Protein binding in human plasma assessed as unbound fraction by ultracentrifugation
assayReadout: fraction unbound
Give your answer as a number; write no unit.

[[record]]
chemicalstring = "Nc1nc2cnc(C(=O)N3CCOC[C@@H]3c3ccc(C(F)(F)F)cc3)cc2c2c1COC2"
assayreadout = "fraction unbound"
testvalue = 0.11


Next compound, fraction unbound to be filled in.
Tell me the measured fraction unbound of `Cc1cc2cc(C(=O)N(Cc3ccc(C(F)(F)F)cn3)[C@H](C)c3ncccn3)ccc2nc1N` , please.
0.1

---

Entries and their measured microsomal CLint at 0.5 µM follow.
# assayProcedure: Metabolic stability in mouse liver microsomes assessed as intrinsic clearance at 0.5 uM incubated for 40 mins in presence of NADPH
# Format: ADME, Microsome
# conditionLabel: read-out: CLH
Unit µL/min/mg implied. Number only.

The examples below pair each entry with its known result.
[[record]]
chemicalstring = "C[C@H](c1ncccn1)N(Cc1ccc(C(F)(F)F)cn1)C(=O)c1cnc2nc(N)c3c(c2c1)COC3"
assayreadout = "microsomal CLint at 0.5 µM"
testvalue = 17

[[record]]
chemicalstring = "C[C@H](c1ncccn1)N(Cc1ccc(C(F)(F)F)cn1)C(=O)c1cc2c3c(c(N)nc2cc1F)COC3"
assayreadout = "microsomal CLint at 0.5 µM"
testvalue = 624

[[record]]
chemicalstring = "CCN(Cc1ccc(C(F)(F)F)cn1)C(=O)c1ccc2nc(N)c3c(c2c1)COC3"
assayreadout = "microsomal CLint at 0.5 µM"
testvalue = 45

[[record]]
chemicalstring = "Nc1nc2ccc(C(=O)N3CCOC[C@@H]3c3ccc(C(F)(F)F)nc3)cc2c2c1COC2"
assayreadout = "microsomal CLint at 0.5 µM"
testvalue = 17

[[record]]
chemicalstring = "Nc1nc2ccc(C(=O)N3CCOC[C@@H]3c3ccc(Cl)cc3)cc2c2c1COC2"
assayreadout = "microsomal CLint at 0.5 µM"
testvalue = 121


GET /values?readout=microsomal CLint at 0.5 µM&item= `Cc1cc2cc(C(=O)N(Cc3ccc(C(F)(F)F)cn3)CC(C)C)ccc2nc1N`
148

What does the record list as microsomal CLint at 0.5 µM for `C[C@@H]1OCc2c1c(N)nc1cnc(C(=O)N3CCOC[C@@H]3c3ccc(C(F)(F)F)cc3)cc21` ?
64

Fill blank: measured microsomal CLint at 0.5 µM of the compound `C[C@H](c1ncccn1)N(Cc1ccc(C(F)(F)F)cn1)C(=O)c1ccc2nc(N)c3c(c2c1)CCC3` is ____.
563

Which microsomal CLint at 0.5 µM reading was recorded for the compound `Cc1cc2cc(C(=O)N(Cc3ccc(C(F)(F)F)cn3)[C@H](C)c3ncccn3)ccc2nc1N` ?
90

---

# targetEntity: Nuclear receptor subfamily 1 group I member 2 (Homo sapiens)
# Sequence (O75469 whole entry): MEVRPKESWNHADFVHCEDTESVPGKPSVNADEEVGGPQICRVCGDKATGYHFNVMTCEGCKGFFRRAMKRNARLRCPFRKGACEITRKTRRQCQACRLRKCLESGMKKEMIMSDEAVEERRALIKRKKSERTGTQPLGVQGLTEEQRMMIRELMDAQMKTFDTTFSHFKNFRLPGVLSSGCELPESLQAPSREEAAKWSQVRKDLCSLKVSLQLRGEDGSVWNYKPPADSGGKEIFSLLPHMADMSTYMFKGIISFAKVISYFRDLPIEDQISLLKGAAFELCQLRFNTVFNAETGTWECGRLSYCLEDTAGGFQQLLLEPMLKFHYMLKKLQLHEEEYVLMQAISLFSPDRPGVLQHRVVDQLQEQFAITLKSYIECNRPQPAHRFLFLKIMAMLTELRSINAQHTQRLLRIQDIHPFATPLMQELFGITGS
# assayProcedure: Activation of human PXR in human HepG2 cells co-transfected with CYP3A4-luciferase at 10 uM incubated for 1 day relative to control
# conditionLabel: hepg2, 24 h
assayReadout: Activity (%)
Reply numerically in %, unit not repeated.

Previously resolved entries follow.
[[record]]
chemicalstring = "Cc1cc2cc(C(=O)N(Cc3ccc(C(F)(F)F)cn3)CC(C)C)ccc2nc1N"
testvalue = 22

[[record]]
chemicalstring = "C[C@H]1OCc2c1c(N)nc1cnc(C(=O)N3CCOC[C@@H]3c3ccc(C(F)(F)F)cc3)cc21"
testvalue = 80

[[record]]
chemicalstring = "C[C@H](c1ncccn1)N(Cc1ccc(C(F)(F)F)cn1)C(=O)c1ccc2nc(N)c(Cl)cc2c1"
testvalue = 46

[[record]]
chemicalstring = "Cc1cc2cc(C(=O)N(Cc3ccc(C(F)(F)F)cn3)[C@H](C)c3ncccn3)ncc2nc1N"
testvalue = 11

[[record]]
chemicalstring = "Cc1cc2cc(C(=O)N(Cc3ccc(C(F)(F)F)cn3)[C@H](C)c3ncccn3)cnc2nc1N"
testvalue = 6

[[record]]
chemicalstring = "C[C@H](c1ncccn1)N(Cc1ccc(C(F)(F)F)cn1)C(=O)c1ccc2nc(N)c3c(c2c1)CCC3"
testvalue = 73

[[record]]
chemicalstring = "C[C@H](c1ncccn1)N(Cc1ccc(C(F)(F)F)cn1)C(=O)c1cc2c3c(c(N)nc2cn1)COC3"
testvalue = 9

[[record]]
chemicalstring = "C[C@H](c1ncccn1)N(Cc1ccc(C(F)(F)F)cn1)C(=O)c1cnc2nc(N)c3c(c2c1)COC3"
testvalue = 1

[[record]]
chemicalstring = "C[C@H](c1ncccn1)N(Cc1ccc(C(F)(F)F)cn1)C(=O)c1cc2c3c(c(N)nc2cc1F)COC3"
testvalue = 50

[[record]]
chemicalstring = "C[C@H](c1ncccn1)N(Cc1ccc(C(F)(F)F)cn1)C(=O)c1ccc2nc(N)c3c(c2c1)COC3"
testvalue = 13


# context switch: different compound, same Activity
What value of Activity has been reported for the following compound? `C[C@H](c1ncccn1)N(Cc1ccc(C(F)(F)F)cn1)C(=O)c1ccc2nc(N)ccc2c1`
17

---

A collection of molecules and their measured microsomal CLint at 0.5 µM
# assayProcedure: Metabolic stability in mouse liver microsomes assessed as intrinsic clearance at 0.5 uM incubated for 40 mins in presence of NADPH
# Assay type: ADME, Microsome
# conditionLabel: read-out: CLH
Just the number please, in µL/min/mg, no unit attached.

Use the examples below as a reference point.
[[record]]
molecule = "C[C@H](c1ncccn1)N(Cc1ccc(C(F)(F)F)cn1)C(=O)c1ccc2nc(N)c3c(c2c1)COC3"
assayreadout = "microsomal CLint at 0.5 µM"
testvalue = 278

[[record]]
molecule = "Nc1nc2ccc(C(=O)N3CCCC3c3ccc(C(F)(F)F)cn3)cc2c2c1COC2 (stereo not drawn)"
assayreadout = "microsomal CLint at 0.5 µM"
testvalue = 72

[[record]]
molecule = "Nc1nc2ccc(C(=O)N3CCOC[C@@H]3c3ccc(C(F)(F)F)cn3)cc2c2c1COC2"
assayreadout = "microsomal CLint at 0.5 µM"
testvalue = 16

[[record]]
molecule = "Nc1nc2ncc(C(=O)N3CCOCC3c3ccc(C(F)(F)F)cc3)cc2c2c1COC2 (stereo not drawn)"
assayreadout = "microsomal CLint at 0.5 µM"
testvalue = 26

[[record]]
molecule = "CN(Cc1ccc(C(F)(F)F)cn1)C(=O)c1ccc2nc(N)c3c(c2c1)COC3"
assayreadout = "microsomal CLint at 0.5 µM"
testvalue = 19

[[record]]
molecule = "Nc1nc2cnc(C(=O)N3CCC(F)(F)C[C@@H]3c3ccc(C(F)(F)F)cc3)cc2c2c1COC2"
assayreadout = "microsomal CLint at 0.5 µM"
testvalue = 87


Please report the recorded microsomal CLint at 0.5 µM for `Nc1nc2cnc(C(=O)N3CCCC[C@@H]3c3ccc(C(F)(F)F)cc3)cc2c2c1COC2` .
102

Would you mind telling me what microsomal CLint at 0.5 µM value was observed for `C[C@H]1OCc2c1c(N)nc1cnc(C(=O)N3CCOC[C@@H]3c3ccc(C(F)(F)F)cc3)cc21` ?
51

// query microsomal CLint at 0.5 µM value for entry `Nc1nc2cnc(C(=O)N3CCOC[C@@H]3c3ccc(C(F)(F)F)cc3)cc2c2c1COC2`
37

Given the entry `C[C@H](c1ncccn1)N(Cc1ccc(C(F)(F)F)cn1)C(=O)c1ccc2nc(N)ccc2c1` , report its measured microsomal CLint at 0.5 µM.
62

So what does the record say about microsomal CLint at 0.5 µM for `C[C@@H]1COC[C@H](c2ccc(C(F)(F)F)cc2)N1C(=O)c1cc2c3c(c(N)nc2cn1)COC3` ?
178

Entry under review: `Cc1cc2cc(C(=O)N(Cc3ccc(C(F)(F)F)cn3)[C@H](C)c3ncccn3)ncc2nc1N` . Reported microsomal CLint at 0.5 µM?
46

GET /values?readout=microsomal CLint at 0.5 µM&item= `Nc1nc2ccc(C(=O)N3CCOC[C@@H]3c3ccc(C(F)(F)F)cc3)cc2c2c1COC2`
78

---

# assayProcedure: Metabolic stability in mouse liver microsomes assessed as intrinsic clearance at 0.5 uM incubated for 40 mins in presence of NADPH
# Type: ADME, Microsome
# conditionLabel: read-out: CLH
assayReadout: microsomal CLint at 0.5 µM (µL/min/mg)
// units = µL/min/mg; emit number, no label

// known answers, use as guide
[[record]]
molecule = "C[C@H](c1ncccn1)N(Cc1ccc(C(F)(F)F)cn1)C(=O)c1ccc2nc(N)c(Cl)cc2c1"
assayreadout = "microsomal CLint at 0.5 µM"
unitstring = "µL/min/mg"
testvalue = 105

[[record]]
molecule = "C[C@H](c1ncccn1)N(Cc1ccc(C(F)(F)F)cn1)C(=O)c1cc2c3c(c(N)nc2cn1)COC3"
assayreadout = "microsomal CLint at 0.5 µM"
unitstring = "µL/min/mg"
testvalue = 154

[[record]]
molecule = "Cc1cc2cc(C(=O)N(Cc3ccc(C(F)(F)F)cn3)[C@H](C)c3ncccn3)cnc2nc1N"
assayreadout = "microsomal CLint at 0.5 µM"
unitstring = "µL/min/mg"
testvalue = 14

[[record]]
molecule = "Nc1nc2ccc(C(=O)N3CCOCC3c3ccc(C(F)(F)F)cn3)cc2c2c1COC2 (racemic)"
assayreadout = "microsomal CLint at 0.5 µM"
unitstring = "µL/min/mg"
testvalue = 45


Here is another molecule to look at.
# get_value(readout='microsomal CLint at 0.5 µM', item= `Nc1nc2ccc(C(=O)N3CCOC[C@H]3c3ccc(C(F)(F)F)cn3)cc2c2c1COC2` )
52

Sourced from ChEMBL document CHEMBL6109134
